Biological target: Tumor necrosis factor receptor superfamily member 10B (Homo sapiens) (UniProt O14763)
Sequence (O14763 whole entry, looked up): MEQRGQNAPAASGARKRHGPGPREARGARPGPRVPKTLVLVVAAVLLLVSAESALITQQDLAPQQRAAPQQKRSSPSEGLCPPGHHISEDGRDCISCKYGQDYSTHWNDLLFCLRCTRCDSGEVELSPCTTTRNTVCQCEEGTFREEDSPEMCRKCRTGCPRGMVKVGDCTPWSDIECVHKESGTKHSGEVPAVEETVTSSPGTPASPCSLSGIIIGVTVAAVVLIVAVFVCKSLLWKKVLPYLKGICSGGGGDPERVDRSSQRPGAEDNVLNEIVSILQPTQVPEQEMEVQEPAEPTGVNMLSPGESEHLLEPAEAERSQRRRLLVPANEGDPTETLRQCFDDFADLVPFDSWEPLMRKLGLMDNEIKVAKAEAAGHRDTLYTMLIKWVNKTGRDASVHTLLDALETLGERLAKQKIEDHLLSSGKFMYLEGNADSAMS
Test: TRAIL sensitizers in caspase-8 expressing neuroblastoma cells, dose response, NB7 cells plus caspase-8, luminescence, panel (AID 652002)
Settings: NB7 neuroblastoma +caspase-8, TRAIL sensitization, luminescence viability, NB7+Caspase-8, with TRAIL, run 1; at 12.5 µM (top of the series)
attribute_measured: activity, % sensitization (%)
One number for each entry, in %.

O=C(Nc1ccc2c(c1)OCO2)c1ccc2c(c1)OCO2 46.4

Record activity, % sensitization for all entries; do not skip any.
1. O=C(Nc1ccc(Br)cc1F)c1ccc2c(c1)OCCO2
2. O=C1Cc2c(-c3ccccc3)cc(-c3cccc(Cl)c3)nc2-c2ccccc2N1
3. O=C(NNC(=O)c1cc(OCC(F)(F)F)ccc1OCC(F)(F)F)c1ccc(Cl)c(Cl)c1
4. COc1cc(NC(=O)c2[nH]cnc2C(N)=O)cc(C(=O)Nc2cccc(C(F)(F)F)c2)c1
5. CN(C)CCCN(C(=O)c1ccc(C(=O)c2ccccc2)cc1)c1nc2ccc(F)cc2s1
6. CC(C)(C)OC(=O)[C@H](Cc1ccccc1)NC(=O)c1[nH]cnc1C(=O)Nc1ccccc1F

Reply:
1. 35.1
2. -1.76
3. -9.65
4. 36.3
5. 12.1
6. 16.8

Record activity, % sensitization for all entries; do not skip any.
1. COc1ccc(-c2nc(-c3ccc(NC(=O)c4ccncc4)cc3)no2)cc1OC
2. COc1ccc2sc(-c3ccc(S(C)(=O)=O)cc3)c(C#Cc3cncn3C)c2c1

Reply:
-12.9
13.3

----------
For each entry below, report its activity value.
Molecular target: Tumor necrosis factor receptor superfamily member 10B (Homo sapiens)
Experiment: caspase-8 TRAIL sensitization, hit retest, confirmation, cell-based, NB7+caspase-8, with/without TRAIL, luminescence panel (AID 651596)
Conditions: NB7 neuroblastoma + caspase-8, TRAIL sensitization, luminescence viability, with TRAIL, mean of runs, at 10 µM, stronger effect = higher value
One number for each entry, in %.

Answered cases to consult:
compound	study_system	activity [%]
Cc1cccc(NC(=O)c2ccc3c(Cl)c4c(nc3c2)CCCC4)n1	Tumor necrosis factor receptor superfamily member 10B (Homo sapiens)	77.1
O=C1c2ccc(Cl)cc2S(=O)(=O)c2cccc(C(=O)N3CCC(Cc4ccccc4)CC3)c21	Tumor necrosis factor receptor superfamily member 10B (Homo sapiens)	70.8
O=C(OCc1cc(=O)oc2cc(O)ccc12)c1cc(S(=O)(=O)N2CCOCC2)ccc1F	Tumor necrosis factor receptor superfamily member 10B (Homo sapiens)	84.1

Record activity for all entries; do not skip any.
1. O=C(/C=C/c1ccco1)Nc1ccc2c(c1)OCCO2
2. NC(Cc1ccc(C(F)(F)F)cc1)c1csc(NC(=O)Nc2ccccc2Oc2ccccc2)n1 (stereo not given)
3. COc1ccc(C(=O)Nc2ccc3[nH]ncc3c2)cc1
4. CCN(CC)c1ccc(/C=N/NC(=O)c2ccco2)cc1
5. O=C(NC1=NC2CCCCC2N1)c1ccccc1 (stereo not given)
6. CC1CCN(S(=O)(=O)c2ccc3c(c2)C(=NO)c2cc(S(=O)(=O)N4CCC(C)CC4)ccc2-3)CC1
7. C=CCn1c(C)cc(C2=NNC(=NCC)SC2)c1C

Reply:
1: 71.8; 2: 75.1; 3: 78.3; 4: 56.5; 5: 62.8; 6: 98.2; 7: 93.8

Record activity for all entries; do not skip any.
1. CC(C)(C)c1ccc(-c2cn(-c3ccc(Br)cc3)c3[n+]2CCCS3)cc1
2. CCC(C)c1ccc2oc(-c3ccc(NC(=O)Cn4cnc5c(=O)n(C)c(=O)n(C)c54)cc3)nc2c1 (stereo not given)
3. Cc1onc(C(=O)N2CCN(C(c3ccccc3)c3ccccc3)CC2)c1[N+](=O)[O-]
4. Brc1ccc(-c2ccc(/C=N/Nc3nc4ccccc4[nH]3)o2)cc1
5. CSc1nc2ccc(NC(=O)c3ccccn3)cc2s1
6. Cc1csc(NC(=O)c2cn3ccccc3n2)n1
7. COc1ccccc1/C=C/C1(C(=O)NC2CCCC2)CC(=O)N1c1ccc(C)cc1 (stereo not given)

Reply:
[71.9, 85.3, 99.8, 51.5, 83.2, 89.6, 90.2]

Record activity for all entries; do not skip any.
1. NC(=O)c1ccsc1NC(=O)c1ccc(N2CCCC2=O)cc1
2. Cc1nc2cc(NC(=O)Nc3nccs3)ccc2n1C
3. CSC(=Nc1ccccc1)N=C(SCc1ccccc1)N(C)C

Reply:
87.3
63.5
96.8

----------
Target: Sentrin-specific protease 6 (Homo sapiens)
Assay: SENP6 protease inhibitors, confirmation, biochemical, luminescence, single concentration (AID 488915)
Conditions: recombinant SENP6, Z-RLRGG-aminoluciferin luminescence; at 12.5 µM
This is one part of the list. Activity calls are given as the source filed them.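 How the source made its calls: active means mean inhibition above about 50% in the one-dose retest (limit read from the data); inactive means the rest.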
Output constraint: value belongs to active, inactive

Example results:
compound	study_system	group_label
COc1ccccc1NC(=O)c1ccc(N2CC3CC(C2)c2cccc(=O)n2C3)c(NC(=O)c2cccnc2)c1 (stereo not drawn)	Sentrin-specific protease 6 (Homo sapiens)	inactive
COc1ccc2nc(Nc3nc4cc5c(cc4s3)OCCO5)sc2c1	Sentrin-specific protease 6 (Homo sapiens)	active

Then there is this compound:
Query: Assay result, entry COc1cccc(C(=O)Nc2nc3ccc(S(C)(=O)=O)cc3s2)c1 — outcome?
Reply: active

----------
For each entry below, report its inhibition value.
System: Rat fibroblasts (CREF)
Assay: Peg3 promoter luciferase inhibitors, potency, dose response, cell-based, HeLa, CREF/GAPDH counter-screen panel (AID 624167)
Conditions: CREF/GAPDH counter-screens; run 2, dose range 1, at 100 µM (top of the series)
Numbers only, in %.

Cc1ccccc1-c1nc(-c2ccccn2)no1 99.3
O=C(/C=C/c1ccc(Cl)c([N+](=O)[O-])c1)c1ccc(O)cc1 98.7
COc1cc(/C=N/O)ccc1OCc1ccc(C(=O)O)cc1 91.3

For reference, reported inhibition for C=CCn1c(C)cc(C2=NNC(=NCC)SC2)c1C stands at 98.1

----------
For each entry below, report its inhibition value.
Target: PEG-3 (UniProt Q6IN02)
Sequence (Q6IN02 whole entry, looked up): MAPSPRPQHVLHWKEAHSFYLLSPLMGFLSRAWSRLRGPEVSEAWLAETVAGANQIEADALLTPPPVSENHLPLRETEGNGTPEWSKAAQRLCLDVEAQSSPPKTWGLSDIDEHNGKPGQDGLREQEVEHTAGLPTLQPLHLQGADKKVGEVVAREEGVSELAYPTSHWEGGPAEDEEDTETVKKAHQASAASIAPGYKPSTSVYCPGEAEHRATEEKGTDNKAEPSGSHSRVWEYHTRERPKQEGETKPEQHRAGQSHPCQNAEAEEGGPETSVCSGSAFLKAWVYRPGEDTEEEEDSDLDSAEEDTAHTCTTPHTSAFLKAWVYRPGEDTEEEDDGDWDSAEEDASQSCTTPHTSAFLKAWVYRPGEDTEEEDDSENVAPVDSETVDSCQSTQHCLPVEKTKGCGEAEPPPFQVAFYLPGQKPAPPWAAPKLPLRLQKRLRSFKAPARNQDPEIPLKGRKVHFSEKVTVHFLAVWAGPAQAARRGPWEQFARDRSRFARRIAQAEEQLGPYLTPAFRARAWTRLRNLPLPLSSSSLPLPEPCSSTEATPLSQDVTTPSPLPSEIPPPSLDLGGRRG
Assay: Peg3 promoter luciferase inhibitors, potency, dose response, cell-based, HeLa, CREF/GAPDH counter-screen panel (AID 624167)
Conditions: CREF/GAPDH counter-screens; HeLa PEG-Prom luciferase reporter, overnight, run 1, dose range 1, at 100 µM (top of the series) unless noted
Numbers only, in %.

molecule	test_value
C/C(=N\NC(=O)c1n[nH]c2c1CCC2)c1cccs1	98.6
c1cc2c(cc1C1=NNC(=NC3CC3)SC1)OCCO2	98.9
CN1CCC(N(C)S(=O)(=O)c2ccc(NC(=O)COc3ccc(Br)cc3Cl)cc2)CC1	99.8
COc1ccc(CNCCC(c2ccccc2)c2ccc(OC(C)C)cc2)cc1OC (stereo not drawn)	101
CCOc1ccc(NC(=O)Nc2cccc(C(=O)O)c2)cc1	98

Record inhibition for all entries; do not skip any.
1. OC[C@@H]1[C@@H](c2ccc(Cl)cc2)C(c2cccc(Cl)c2)=NN1c1ccccc1
2. O=C(N/N=C/c1cc([N+](=O)[O-])ccc1O)c1ccc(COc2ccc3c(c2)CCC3)o1

Reply:
1: 102; 2: 52.4

Record inhibition for all entries; do not skip any.
1. CCCc1nc(SCC(=O)N2CCCc3ccccc32)c2c(=O)n(C)c(=O)n(C)c2n1
2. COC(=O)C1=C(C)N(Cc2ccccc2)C(=NCCc2c[nH]c3ccccc23)N[C@H]1c1cccc(C(F)(F)F)c1
3. O=C(c1ccoc1)N1CCN(c2cc(-c3ccccc3)nc3cc(-c4ccccc4)nn23)CC1
4. OCCCNc1nccc(-c2cc(Nc3cccc(Cl)c3)ncn2)n1
5. O=C1c2ccccc2C(=O)C12OC2c1ccc(Cl)cc1Cl (stereo not drawn)
6. N=c1n(CC(=O)c2ccc([N+](=O)[O-])cc2)c2ccccc2n1Cc1ccc(Cl)cc1
7. N#C/C(=C\c1cccc([N+](=O)[O-])c1)C(=O)NCc1ccc(Cl)cc1

Reply:
1: 99.2; 2: 101; 3: 58.2; 4: 94; 5: 99; 6: 99.6; 7: 99.3

Record inhibition for all entries; do not skip any.
1. Cc1ccsc1/C=N/Nc1cccc(C(=O)O)c1
2. CNC[C@H](CC1CCCCC1)NC[C@H](NCCC1CCCC1)[C@H](C)O
3. CCOC(=O)c1cnc(Nc2nc3ccccc3o2)nc1C
4. Cc1ccc2nc(N(CCCN(C)C)C(=O)c3ccc4c(c3)CCCC4)sc2c1

Reply:
[98.1, 102, 85.5, 99.5]

Record inhibition for all entries; do not skip any.
1. COc1ccc(-c2cc(C(=O)Nc3ccccc3N3CCOCC3)c3ccccc3n2)cc1OC
2. COc1cc(C(=O)N/N=C(\c2ccccc2)c2ccccn2)cc(OC)c1OC
3. Cc1ccc(C(=O)Nc2ncc([N+](=O)[O-])s2)cc1

Reply:
2.08
72.6
91.3

Record inhibition for all entries; do not skip any.
1. O=C(C[n+]1ccc(-c2cc(C(=O)Nc3cccc(C(F)(F)F)c3)c3ccccc3n2)cc1)c1cccc([N+](=O)[O-])c1
2. O=C(Nc1cc(S(=O)(=O)N2CCOCC2)ccc1Cl)c1cc([N+](=O)[O-])ccc1Cl

Reply:
1: 101; 2: 98.9

Record inhibition for all entries; do not skip any.
1. CC(=O)NC(c1ccccc1)c1cc(Cl)c2cccnc2c1O (stereo not drawn)
2. COc1cc(SC)ccc1C(=O)Nc1ncc(C)s1
3. Oc1[nH]c2ccc(Br)cc2c1N=NC(=S)Nc1ccc(F)cc1
4. COc1ccc(-n2c(O)c(/C=N/Nc3nc(C)cc(C)n3)c3ccccc3c2=O)cc1OC
5. C=CCn1c(COc2ccccc2)nnc1SC(C)C(=O)N/N=C/c1cc(Cl)ccc1O (stereo not drawn)
6. COc1cccc(NC(=O)CN(C)C(=O)c2cc(-c3ccc(F)cc3)nc3ccccc23)c1

Reply:
1: 96.6; 2: 95.5; 3: 89.9; 4: 57.2; 5: 64; 6: 102

Record inhibition for all entries; do not skip any.
1. O=C(NC1=NCCS1)C1COc2ccccc2O1 (stereo not drawn)
2. O=C(CN1CCN(Cc2ccccc2Cl)CC1)N=Nc1c(O)[nH]c2ccccc12
3. COCCCNC(=O)c1ccc(Cn2c(=O)c3ccccc3n(Cc3ccccc3C#N)c2=O)cc1
4. O=C(c1ccco1)N1CCN(C(c2ccccc2Cl)c2nnnn2Cc2cccs2)CC1 (stereo not drawn)
5. CC(C)Cc1ccc(C(C)C(N)=NCCc2ccccc2)cc1 (stereo not drawn)

Reply:
1: 96.4; 2: 94.2; 3: 63.4; 4: 63; 5: 97.4

Record inhibition for all entries; do not skip any.
1. CN(C)c1ccc(/C=C/c2ccc3ccccc3n2)cc1
2. CCCc1nc2oc3c(NCCCN(C)C)ncnc3c2c2c1CCCC2

Reply:
1: 96.6; 2: 102

For reference, reported inhibition for C(=NN1CCCCCC1)c1ccc2ccccc2n1 stands at 102
